Below is a list of entries, each paired with its recorded DC50 value.
Target: CYCLIN K (nuclear staining in CAL-120 cells) (Homo sapiens, UniProt O75909)
Construct: endogenous in cells; host or cells: CAL-120 human breast cancer cells (DSMZ ACC 459)
Sequence (O75909 whole entry): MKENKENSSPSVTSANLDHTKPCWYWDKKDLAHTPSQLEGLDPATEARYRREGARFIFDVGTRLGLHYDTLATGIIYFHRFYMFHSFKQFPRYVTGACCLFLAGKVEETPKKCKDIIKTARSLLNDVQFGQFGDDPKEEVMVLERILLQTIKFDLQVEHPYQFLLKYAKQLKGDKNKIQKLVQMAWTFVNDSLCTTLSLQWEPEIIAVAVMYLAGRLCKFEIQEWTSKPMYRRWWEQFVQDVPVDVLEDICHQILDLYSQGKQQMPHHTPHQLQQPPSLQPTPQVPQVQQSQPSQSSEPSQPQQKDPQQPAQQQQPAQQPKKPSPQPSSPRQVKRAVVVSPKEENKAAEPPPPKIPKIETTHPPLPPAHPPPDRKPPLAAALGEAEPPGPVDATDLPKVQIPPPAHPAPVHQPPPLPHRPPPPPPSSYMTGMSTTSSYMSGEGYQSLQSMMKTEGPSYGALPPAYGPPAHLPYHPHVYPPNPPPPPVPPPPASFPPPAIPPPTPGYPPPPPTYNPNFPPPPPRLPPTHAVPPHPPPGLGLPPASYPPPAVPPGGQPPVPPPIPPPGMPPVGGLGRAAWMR
Sequence (Q9NYV4 whole entry partner): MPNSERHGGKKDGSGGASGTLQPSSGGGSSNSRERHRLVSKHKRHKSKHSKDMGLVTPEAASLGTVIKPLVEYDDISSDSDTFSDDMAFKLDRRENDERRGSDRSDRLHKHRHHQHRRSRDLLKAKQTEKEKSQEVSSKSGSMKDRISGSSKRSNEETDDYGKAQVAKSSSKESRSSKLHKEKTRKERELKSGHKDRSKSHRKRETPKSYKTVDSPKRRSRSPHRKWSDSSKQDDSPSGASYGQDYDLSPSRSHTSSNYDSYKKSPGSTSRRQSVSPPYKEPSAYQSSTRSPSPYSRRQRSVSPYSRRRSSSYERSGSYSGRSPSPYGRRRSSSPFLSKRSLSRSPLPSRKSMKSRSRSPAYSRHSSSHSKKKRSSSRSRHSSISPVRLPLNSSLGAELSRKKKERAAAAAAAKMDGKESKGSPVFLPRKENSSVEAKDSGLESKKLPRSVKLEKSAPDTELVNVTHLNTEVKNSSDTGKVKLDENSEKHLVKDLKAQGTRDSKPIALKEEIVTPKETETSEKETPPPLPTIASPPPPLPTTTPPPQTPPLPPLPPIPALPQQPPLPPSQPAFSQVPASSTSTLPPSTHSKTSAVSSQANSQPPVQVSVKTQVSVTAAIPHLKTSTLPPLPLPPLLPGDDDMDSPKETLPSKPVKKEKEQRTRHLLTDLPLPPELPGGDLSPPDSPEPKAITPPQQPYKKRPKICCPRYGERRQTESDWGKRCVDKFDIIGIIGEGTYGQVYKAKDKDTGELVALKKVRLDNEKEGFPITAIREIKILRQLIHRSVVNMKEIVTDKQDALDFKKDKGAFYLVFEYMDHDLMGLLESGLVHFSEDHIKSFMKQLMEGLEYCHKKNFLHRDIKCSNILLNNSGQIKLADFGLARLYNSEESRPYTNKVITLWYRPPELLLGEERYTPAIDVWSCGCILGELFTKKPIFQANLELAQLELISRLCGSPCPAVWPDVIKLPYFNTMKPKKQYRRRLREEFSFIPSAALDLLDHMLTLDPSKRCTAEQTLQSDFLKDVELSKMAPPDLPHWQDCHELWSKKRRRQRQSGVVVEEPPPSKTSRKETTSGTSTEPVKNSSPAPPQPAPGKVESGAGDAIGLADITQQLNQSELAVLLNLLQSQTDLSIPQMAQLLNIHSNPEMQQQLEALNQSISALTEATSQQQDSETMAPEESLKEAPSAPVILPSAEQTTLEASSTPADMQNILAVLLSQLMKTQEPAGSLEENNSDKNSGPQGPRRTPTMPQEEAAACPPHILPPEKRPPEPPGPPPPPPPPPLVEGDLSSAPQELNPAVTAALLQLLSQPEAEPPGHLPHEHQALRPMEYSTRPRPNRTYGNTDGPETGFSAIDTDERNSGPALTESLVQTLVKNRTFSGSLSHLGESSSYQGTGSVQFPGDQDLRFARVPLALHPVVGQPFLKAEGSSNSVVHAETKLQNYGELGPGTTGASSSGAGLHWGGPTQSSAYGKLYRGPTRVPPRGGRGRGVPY
Experiment: CYCLIN K nuclear protein level: immunofluorescence high content analysis (CAL-120)
Type: cell-based
Details: 24 h, 50% reduction of nuclear CCNK staining intensity, median, read-out: CYCLIN K degradation IF, DC50-[mol/l] (median)
Supply the numeric figure in nM, leaving out any unit text.

Some compounds with known DC50 results, for comparison:
>  <Compound Smiles>
FC(F)(F)c1ccc2[nH]c(CNc3nc(N4CC5CCC(C4)N5)nc4c(Br)cnn34)nc2c1

>  <Assay Endpoint>
DC50

>  <Result Number>
1.65

$$$$
>  <Compound Smiles>
CN1CCN(c2nc(NCc3nc4ccccc4[nH]3)n3ncc(C4CC4)c3n2)CC1

>  <Assay Endpoint>
DC50

>  <Result Number>
1.02

$$$$
>  <Compound Smiles>
Fc1cc(-c2nnc(CNc3nc(N4CCOCC4)nc4c(Br)cnn34)[nH]2)cc(F)c1F

>  <Assay Endpoint>
DC50

>  <Result Number>
7.4

$$$$

Then this compound:
The compound Fc1ccc2[nH]c(CNc3nc(N4CCOCC4)nc4c(-c5nccs5)cnn34)nc2c1F , when measured on CYCLIN K (nuclear staining in CAL-120 cells) (Homo sapiens, UniProt O75909), yielded DC50 of 6.91

---

Target: CDK12 (nuclear staining in CAL-120 cells) (Homo sapiens)
Construct: endogenous in cells; host or cells: CAL-120 human breast cancer cells (DSMZ ACC 459)
Assay: CDK12 nuclear protein level: immunofluorescence/high content analysis (CAL-120)
Assay type: cell-based
Conditions: ratio of IC50 CDK12 high ATP kinase assay to DC50 CDK12 degradation (IF, CAL-120)
Assay Endpoint: (IC50 CDK12 high ATP) to (Degradation DC50 CDK12) ratio
Form: value (number only, do not type unit).

>  <Molecule>
Brc1cnn2c(NCc3nnc(-c4cccnc4)[nH]3)nc(N3CCOCC3)nc12

>  <Result Number>
43

$$$$
>  <Molecule>
Cc1ccc2[nH]c(CNc3nc(N4C[C@H]5C[C@@H]4CO5)nc4c(C5CC5)cnn34)nc2c1

>  <Result Number>
8068

$$$$
>  <Molecule>
O=C(O)C(F)(F)F.c1ccc2[nH]c(CNc3nc(N4CCOCC4)nc4c(-c5cncs5)cnn34)nc2c1

>  <Result Number>
676

$$$$
>  <Molecule>
OC1CCCN(c2nc(NCc3nc4ccccc4[nH]3)n3ncc(Br)c3n2)C1 (racemic)

>  <Result Number>
1528

$$$$
>  <Molecule>
NCCc1cccc2[nH]c(CNc3nc(N4CCOCC4)nc4c(Br)cnn34)nc12

>  <Result Number>
134

$$$$

The molecule CN(CC(C)(C)O)c1nc(NCc2nc3cc(Cl)c(Cl)cc3[nH]2)n2ncc(C3CC3)c2n1 , when measured on CDK12 (nuclear staining in CAL-120 cells) (Homo sapiens), yielded (IC50 CDK12 high ATP) to (Degradation DC50 CDK12) ratio of 146

The molecule CC1(C)CN(c2nc(NCc3nc4ccccc4[nH]3)n3ncc(C4CC4)c3n2)CCO1 , when measured on CDK12 (nuclear staining in CAL-120 cells) (Homo sapiens), yielded (IC50 CDK12 high ATP) to (Degradation DC50 CDK12) ratio of 2883

The molecule Brc1cnn2c(NCc3nc4ccccc4[nH]3)nc(N3CC4CCC3CN4)nc12 (stereo not drawn) , when measured on CDK12 (nuclear staining in CAL-120 cells) (Homo sapiens), yielded (IC50 CDK12 high ATP) to (Degradation DC50 CDK12) ratio of 1318

The molecule FC(F)(F)Oc1cccc(-c2cnc(CNc3nc(N4CCOCC4)nc4c(Br)cnn34)[nH]2)c1 , when measured on CDK12 (nuclear staining in CAL-120 cells) (Homo sapiens), yielded (IC50 CDK12 high ATP) to (Degradation DC50 CDK12) ratio of 41

---

Target: CDK12 (nuclear staining in CAL-120 cells) (Homo sapiens, UniProt Q9NYV4)
Construct: endogenous in cells; host or cells: CAL-120 human breast cancer cells (DSMZ ACC 459)
Sequence (Q9NYV4 whole entry): as the sequence (Q9NYV4 whole entry partner) above
Sequence (O75909 whole entry partner): as the sequence (O75909 whole entry) above
Experiment: CDK12 nuclear protein level: immunofluorescence/high content analysis (CAL-120)
Type: cell-based
Settings: ratio of IC50 CDK12 high ATP kinase assay to DC50 CDK12 degradation (IF, CAL-120)
We use 500 as the dividing line for (IC50 CDK12 high ATP) to (Degradation DC50 CDK12) ratio: on or above the line is Condition met, below is Condition not met.

>  <Molecule>
Brc1cnn2c(NCc3nc4ccccc4[nH]3)nc(N3CCNC4(CC4)C3)nc12

>  <Target>
CDK12 (nuclear staining in CAL-120 cells) (Homo sapiens, UniProt Q9NYV4)

>  <Assigned Label>
Condition met

$$$$
>  <Molecule>
Brc1cnn2c(NCc3nc4c([nH]3)CCCC4)nc(N3CCOCC3)nc12

>  <Target>
CDK12 (nuclear staining in CAL-120 cells) (Homo sapiens, UniProt Q9NYV4)

>  <Assigned Label>
Condition not met

$$$$
>  <Molecule>
COc1ccc2[nH]c(CNc3nc(N4C[C@@H](C)N[C@@H](C)C4)nc4c(Br)cnn34)nc2c1

>  <Target>
CDK12 (nuclear staining in CAL-120 cells) (Homo sapiens, UniProt Q9NYV4)

>  <Assigned Label>
Condition met

$$$$
>  <Molecule>
CC(C)c1cnn2c(NCc3nc4ccccc4[nH]3)nc(N3CCOCC3)nc12

>  <Target>
CDK12 (nuclear staining in CAL-120 cells) (Homo sapiens, UniProt Q9NYV4)

>  <Assigned Label>
Condition met

$$$$
>  <Molecule>
Clc1ccc(-c2cnc(CNc3nc(N4CCOCC4)nc4c(Br)cnn34)[nH]2)cc1

>  <Target>
CDK12 (nuclear staining in CAL-120 cells) (Homo sapiens, UniProt Q9NYV4)

>  <Assigned Label>
Condition not met

$$$$
>  <Molecule>
Cc1ccc2[nH]c(CNc3nc(N4CCOCC4)nc4c(C5CC5)cnn34)nc2c1

>  <Target>
CDK12 (nuclear staining in CAL-120 cells) (Homo sapiens, UniProt Q9NYV4)

>  <Assigned Label>
Condition met

$$$$
>  <Molecule>
CN1CCC(Oc2nc(NCc3nc4ccccc4[nH]3)n3ncc(Br)c3n2)CC1

>  <Target>
CDK12 (nuclear staining in CAL-120 cells) (Homo sapiens, UniProt Q9NYV4)

>  <Assigned Label>
Condition met

$$$$
>  <Molecule>
NC12CC1CN(c1nc(NCc3nc4ccccc4[nH]3)n3ncc(Br)c3n1)C2 (centres unmarked)

>  <Target>
CDK12 (nuclear staining in CAL-120 cells) (Homo sapiens, UniProt Q9NYV4)

>  <Assigned Label>
Condition met

$$$$

Turning now to a further record.
Dear colleague, could you confirm whether Cc1ccc2[nH]c(CNc3nc(N4CCNCC4)nc4c(Br)cnn34)nc2c1 has (IC50 CDK12 high ATP) to (Degradation DC50 CDK12) ratio at or above 500? Condition met

---

Molecular target: CDK12 (nuclear staining in CAL-120 cells) (Homo sapiens, UniProt Q9NYV4)
Construct: endogenous in cells; host or cells: CAL-120 human breast cancer cells (DSMZ ACC 459)
Assay: CDK12 nuclear protein level: immunofluorescence/high content analysis (CAL-120)
Assay type: cell-based
Details: CAL-120 cells, 24 h, immunofluorescence; 50% reduction of nuclear CDK12 staining intensity; median; read-out: CDK12 degradation IF, DC50- [mol/l] (median)
Assay Endpoint: DC50 (nM)
Supply the numeric figure in nM, leaving out any unit text.

Some compounds with known DC50 results, for comparison:
>  <Compound>
Brc1cnn2c(NCc3nc4ccccc4[nH]3)nc(N3C[C@H]4C[C@@H]3CO4)nc12 [Example 102]

>  <DC50 [nM]>
1.41

$$$$
>  <Compound>
CCNc1nc(NCc2nnc(-c3ccccc3)[nH]2)n2ncc(C(C)C)c2n1 [Example 38]

>  <DC50 [nM]>
37.2

$$$$
>  <Compound>
NC12CC1CN(c1nc(NCc3nc4ccccc4[nH]3)n3ncc(Br)c3n1)C2 (centres unmarked) [Example 258]

>  <DC50 [nM]>
3.79

$$$$

Then this compound:
The recorded DC50 for Cc1cc2nc(CNc3nc(N4CCOCC4)nc4c(C5CC5)cnn34)[nH]c2cc1C [Example 320] is 4.28

---

Biological target: CYCLIN K (nuclear staining in CAL-120 cells) (Homo sapiens)
Construct: endogenous in cells; host or cells: CAL-120 human breast cancer cells (DSMZ ACC 459)
Experiment: CYCLIN K nuclear protein level: immunofluorescence high content analysis (CAL-120)
Type: cell-based
Settings: 24 h, 50% reduction of nuclear CCNK staining intensity, median, read-out: CYCLIN K degradation IF, DC50-[mol/l] (median)
So basically: is DC50 under 2 nM? Then rule met. Not under? Then rule not met.

Consider the following illustrative entries.
>  <Molecule>
COc1ccc2[nH]c(CNc3nc(N4CCOCC4)nc4c(Br)cnn34)nc2c1

>  <Assigned Label>
rule met

$$$$
>  <Molecule>
Cc1ccnc2[nH]c(CNc3nc(N4CCOCC4)nc4c(C(C)C)cnn34)nc12

>  <Assigned Label>
rule met

$$$$
>  <Molecule>
Fc1ccc(-c2nnc(CNc3nc(N4CCOCC4)nc4c(Br)cnn34)[nH]2)cc1

>  <Assigned Label>
rule not met

$$$$
>  <Molecule>
Brc1cnn2c(NCc3ncc(-c4ccccn4)[nH]3)nc(N3CCOCC3)nc12

>  <Assigned Label>
rule met

$$$$
>  <Molecule>
FC(F)Cc1cnn2c(NCc3nc4ccccc4[nH]3)nc(N3CCOCC3)nc12.O=C(O)C(F)(F)F

>  <Assigned Label>
rule not met

$$$$

Does the reported DC50 of FC(F)(F)c1cnn2c(NCc3nc4ccccc4[nH]3)nc(N3CCOCC3)nc12 stay below 2 nM? rule met

Does the reported DC50 of Brc1cnn2c(NCc3nc4ccccc4[nH]3)nc(N3C[C@H]4CCCN[C@H]4C3)nc12 stay below 2 nM? rule not met

Does the reported DC50 of OCC1CN(c2nc(NCc3nc4ccccc4[nH]3)n3ncc(Br)c3n2)C1 stay below 2 nM? rule not met

Does the reported DC50 of NC1CCN(c2nc(NCc3nc4ccccc4[nH]3)n3ncc(Br)c3n2)CC1 stay below 2 nM? rule met

Does the reported DC50 of Fc1cccc2[nH]c(CNc3nc(N4C[C@@H]5C[C@H]4CO5)nc4c(C5CC5)cnn34)nc12 stay below 2 nM? rule met

Does the reported DC50 of C[C@@]1(O)CCN(c2nc(NCc3nc4ccccc4[nH]3)n3ncc(Br)c3n2)C1 (single isomer, unassigned) stay below 2 nM? rule not met
